Assay: Half life in human liver microsomes
Format: ADME, Microsome
Binarize half-life at 100 min; below is True, at or above is False.

Answered examples (5):
structure.notation: COc1ccc(S(=O)(=O)N2Cc3ccc(/C=C/C(=O)NO)cc3C2)cc1
group: True
//
structure.notation: Cc1ccc(S(=O)(=O)N2Cc3ccc(/C=C/C(=O)NO)cc3C2)cc1
group: True
//
structure.notation: Nc1ccccc1NC(=O)c1ccc(CNC(=O)OCc2cccnc2)cc1
group: False
//
structure.notation: Cc1[nH]c2ccccc2c1CCN1Cc2ccc(/C=C/C(=O)NO)cc2C1
group: True
//
structure.notation: Cc1noc(-c2ccccc2)c1CCN1Cc2ccc(/C=C/C(=O)NO)cc2C1
group: True

**Query** A record lists O=C(CCCCCCC(=O)Nc1ccccc1)NO . Is its half-life below 100 min?
**Result** False

**Query** A record lists O=C(/C=C/c1ccc(CN(CCO)CCc2c[nH]c3ccccc23)cc1)NO . Is its half-life below 100 min?
**Result** True

**Query** A record lists Cc1[nH]c2ccccc2c1CC(=O)N1Cc2ccc(/C=C/C(=O)NO)cc2C1 . Is its half-life below 100 min?
**Result** False

**Query** A record lists O=C(/C=C/c1cccc(S(=O)(=O)Nc2ccccc2)c1)NO . Is its half-life below 100 min?
**Result** False

**Query** A record lists Nc1ccccc1NC(=O)c1ccc(CNc2nccc(-c3cccnc3)n2)cc1 . Is its half-life below 100 min?
**Result** True

**Query** A record lists Cc1cccc(S(=O)(=O)N2Cc3ccc(/C=C/C(=O)NO)cc3C2)c1 . Is its half-life below 100 min?
**Result** True

**Query** A record lists CC(C)(C)OC(=O)N1Cc2ccc(/C=C/C(=O)NO)cc2C1 . Is its half-life below 100 min?
**Result** False

**Query** A record lists O=C(/C=C/c1ccc2c(c1)CN(Cc1ccccc1)C2)NO . Is its half-life below 100 min?
**Result** True

**Query** A record lists O=C(/C=C/c1ccc2c(c1)CN(CCc1cnn3ccccc13)C2)NO . Is its half-life below 100 min?
**Result** False

----------
Biological target: UniProt Q12809
Sequence (Q12809 whole entry): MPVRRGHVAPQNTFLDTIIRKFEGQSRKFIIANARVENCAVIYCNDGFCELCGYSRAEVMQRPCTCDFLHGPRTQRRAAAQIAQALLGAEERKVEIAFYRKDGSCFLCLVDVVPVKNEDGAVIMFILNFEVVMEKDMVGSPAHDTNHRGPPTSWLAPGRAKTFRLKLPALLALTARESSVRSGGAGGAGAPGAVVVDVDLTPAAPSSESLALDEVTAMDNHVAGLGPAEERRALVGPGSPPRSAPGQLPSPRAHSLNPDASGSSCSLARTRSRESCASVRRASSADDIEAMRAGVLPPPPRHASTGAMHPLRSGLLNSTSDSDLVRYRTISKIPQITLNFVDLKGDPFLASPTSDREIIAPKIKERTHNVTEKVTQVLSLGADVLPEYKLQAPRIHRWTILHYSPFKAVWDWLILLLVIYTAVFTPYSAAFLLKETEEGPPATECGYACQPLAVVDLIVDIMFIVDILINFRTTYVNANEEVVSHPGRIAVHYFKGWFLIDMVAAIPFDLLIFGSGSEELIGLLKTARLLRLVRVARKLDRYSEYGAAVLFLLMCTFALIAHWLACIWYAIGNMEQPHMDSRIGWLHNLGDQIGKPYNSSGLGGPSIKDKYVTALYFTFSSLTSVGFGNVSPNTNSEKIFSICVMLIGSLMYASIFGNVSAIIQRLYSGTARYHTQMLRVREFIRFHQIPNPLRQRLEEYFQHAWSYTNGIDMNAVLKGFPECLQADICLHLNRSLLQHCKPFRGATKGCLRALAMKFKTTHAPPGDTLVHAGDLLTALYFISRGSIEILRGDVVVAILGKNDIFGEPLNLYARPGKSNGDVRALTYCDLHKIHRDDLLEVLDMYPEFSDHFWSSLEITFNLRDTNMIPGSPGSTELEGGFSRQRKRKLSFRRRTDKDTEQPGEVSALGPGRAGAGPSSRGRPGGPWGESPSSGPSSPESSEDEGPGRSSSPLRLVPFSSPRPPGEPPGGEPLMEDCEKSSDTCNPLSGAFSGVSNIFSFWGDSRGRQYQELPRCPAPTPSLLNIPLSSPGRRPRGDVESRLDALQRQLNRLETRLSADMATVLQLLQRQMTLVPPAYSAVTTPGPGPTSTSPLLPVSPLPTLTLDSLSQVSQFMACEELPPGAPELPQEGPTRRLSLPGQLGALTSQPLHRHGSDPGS
Test: Inhibition of human ERG by automated patch clamp assay
Measured IC50, listed per entry for reference.

structure.notation: Cn1cnc(S(=O)(=O)N2Cc3ccc(/C=C/C(=O)NO)cc3C2)c1
IC50: > 30 µM
--
structure.notation: O=C(/C=C/c1ccc2c(c1)CN(S(=O)(=O)Cc1ccccc1)C2)NO
IC50: > 30 µM
--
structure.notation: COc1cccc(S(=O)(=O)N2Cc3ccc(/C=C/C(=O)NO)cc3C2)c1
IC50: > 30 µM
--
structure.notation: O=C(/C=C/c1ccc2c(c1)CN(Cc1ccccc1)C2)NO
IC50: 27.5 µM
--
structure.notation: CS(=O)(=O)N1Cc2ccc(/C=C/C(=O)NO)cc2C1
IC50: > 30 µM

For reference, reported IC50 for O=C(/C=C/c1ccc2c(c1)CN(S(=O)(=O)c1ccccc1)C2)NO stands at > 30 µM

For reference, reported IC50 for O=C(/C=C/c1ccc2c(c1)CN(C(=O)C1CCCC1)C2)NO stands at > 30 µM

For reference, reported IC50 for O=C(/C=C/c1ccc2c(c1)CN(S(=O)(=O)c1cccnc1)C2)NO stands at > 30 µM
